In this section we review reported DRS from MAX-based deconvolution values for a set of compounds.
- System: REH
- ASSAY_NOTES: Cell viability (CellTiter Glo), compressed perturbation pools with informed pool design, MAX-based deconvolution, REH;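 note: higher DRS means a larger drug effect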
- CONDITION_LABEL: REH, Samples, 7 Pick 3 informed perturbation pools
Answer field: number only, no words.

Known DRS from MAX-based deconvolution results, listed for orientation:
Cc1ccc(NC(=O)c2ccc(CN3CCN(C)CC3)cc2)cc1Nc1nccc(-c2cccnc2)n1; 18.48
Cc1cc(Nc2ncnc3ccc(NC4=NC(C)(C)CO4)cc23)ccc1Oc1ccn2ncnc2c1; 0.00
N#Cc1ccnc(N2C(=O)CC[C@H]2C(=O)N(c2cncc(F)c2)[C@H](C(=O)NC2CC(F)(F)C2)c2ccccc2Cl)c1; 3.55
N#Cc1ccc(C(c2ccc(C#N)cc2)n2cncn2)cc1; 0.00
Cc1ccc(C(=O)Nc2ccc(CN3CCN(C)CC3)c(C(F)(F)F)c2)cc1C#Cc1cnc2cccnn12; 0.00

Recorded DRS from MAX-based deconvolution of Nc1cc(F)ccc1NC(=O)c1ccc(CNC(=O)/C=C/c2cccnc2)cc1 , please.
0.00

Recorded DRS from MAX-based deconvolution of Cc1cn(-c2cc(NC(=O)c3ccc(C)c(Nc4nccc(-c5cccnc5)n4)c3)cc(C(F)(F)F)c2)cn1 , please.
0.00

Recorded DRS from MAX-based deconvolution of CNC(=O)c1ccc(N2C(=S)N(c3ccc(C#N)c(C(F)(F)F)c3)C(=O)C2(C)C)cc1F [Enzalutamide] , please.
31.61

Recorded DRS from MAX-based deconvolution of C#Cc1cccc(Nc2ncnc3cc(OCCOC)c(OCCOC)cc23)c1 , please.
7.06

Recorded DRS from MAX-based deconvolution of O=C(c1cc(Cc2n[nH]c(=O)c3ccccc23)ccc1F)N1CCN(C(=O)C2CC2)CC1 , please.
0.00

Recorded DRS from MAX-based deconvolution of CN1CCN(c2ccc(C(=O)Nc3n[nH]c4ccc(Cc5cc(F)cc(F)c5)cc34)c(NC3CCOCC3)c2)CC1 , please.
18.94

Recorded DRS from MAX-based deconvolution of CCN(CC)CCNC(=O)c1c(C)[nH]c(/C=C2\C(=O)Nc3ccc(F)cc32)c1C , please.
0.00

Recorded DRS from MAX-based deconvolution of COc1cc2ncnc(Nc3ccc(F)c(Cl)c3)c2cc1NC(=O)/C=C/CN1CCCCC1 , please.
0.00

Recorded DRS from MAX-based deconvolution of C[C@H]1Oc2cc(cnc2N)-c2c(nn(C)c2C#N)CN(C)C(=O)c2ccc(F)cc21 , please.
0.00

Recorded DRS from MAX-based deconvolution of COc1cc2ncnc(Nc3ccc(F)c(Cl)c3)c2cc1OCCCN1CCOCC1 , please.
0.00

Recorded DRS from MAX-based deconvolution of CNC(=O)c1ccc(-c2cnc3ncc(Cc4ccc5ncccc5c4)n3n2)cc1F , please.
0.00

---

In this section we review reported DRS of pool values for a set of compounds.
- System: co-culture of three cancer cell lines
- ASSAY_NOTES: Cell viability (CellTiter Glo) of compressed target pools, co-cultures of three cell lines (Target Compression)
- Type: cell-based
- CONDITION_LABEL: 6 Pick 3, Pool 6 (SUP-B15, CCRF-HSB2, MOLT-4)
Answer field: number only, no words.

CC1(C)CCC(CN2CCN(c3ccc(C(=O)NS(=O)(=O)c4ccc(NCC5CCOCC5)c([N+](=O)[O-])c4)c(Oc4cnc5[nH]ccc5c4)c3)CC2)=C(c2ccc(Cl)cc2)C1; 13.01
Cc1[nH]c2ccccc2c1CCNCc1ccc(/C=C/C(=O)NO)cc1; 18.22
N#Cc1ccnc(N2C(=O)CC[C@H]2C(=O)N(c2cncc(F)c2)[C@H](C(=O)NC2CC(F)(F)C2)c2ccccc2Cl)c1; 0.61

Next compound, please.
Recorded DRS of pool of COc1c(OCCCN2CCOCC2)ccc2c1N=C(NC(=O)c1cnc(N)nc1)N1CCN=C21 , please.
6.47
